target: mGluR1a (Rattus norvegicus, UniProt P23385); construct: splice variant mGluR1a (untagged and N-terminally myc-tagged, data combined); assay: whole-cell patch clamp, calcium current inhibition in SCG neurons expressing the receptor
Sequence (P23385 19-1199): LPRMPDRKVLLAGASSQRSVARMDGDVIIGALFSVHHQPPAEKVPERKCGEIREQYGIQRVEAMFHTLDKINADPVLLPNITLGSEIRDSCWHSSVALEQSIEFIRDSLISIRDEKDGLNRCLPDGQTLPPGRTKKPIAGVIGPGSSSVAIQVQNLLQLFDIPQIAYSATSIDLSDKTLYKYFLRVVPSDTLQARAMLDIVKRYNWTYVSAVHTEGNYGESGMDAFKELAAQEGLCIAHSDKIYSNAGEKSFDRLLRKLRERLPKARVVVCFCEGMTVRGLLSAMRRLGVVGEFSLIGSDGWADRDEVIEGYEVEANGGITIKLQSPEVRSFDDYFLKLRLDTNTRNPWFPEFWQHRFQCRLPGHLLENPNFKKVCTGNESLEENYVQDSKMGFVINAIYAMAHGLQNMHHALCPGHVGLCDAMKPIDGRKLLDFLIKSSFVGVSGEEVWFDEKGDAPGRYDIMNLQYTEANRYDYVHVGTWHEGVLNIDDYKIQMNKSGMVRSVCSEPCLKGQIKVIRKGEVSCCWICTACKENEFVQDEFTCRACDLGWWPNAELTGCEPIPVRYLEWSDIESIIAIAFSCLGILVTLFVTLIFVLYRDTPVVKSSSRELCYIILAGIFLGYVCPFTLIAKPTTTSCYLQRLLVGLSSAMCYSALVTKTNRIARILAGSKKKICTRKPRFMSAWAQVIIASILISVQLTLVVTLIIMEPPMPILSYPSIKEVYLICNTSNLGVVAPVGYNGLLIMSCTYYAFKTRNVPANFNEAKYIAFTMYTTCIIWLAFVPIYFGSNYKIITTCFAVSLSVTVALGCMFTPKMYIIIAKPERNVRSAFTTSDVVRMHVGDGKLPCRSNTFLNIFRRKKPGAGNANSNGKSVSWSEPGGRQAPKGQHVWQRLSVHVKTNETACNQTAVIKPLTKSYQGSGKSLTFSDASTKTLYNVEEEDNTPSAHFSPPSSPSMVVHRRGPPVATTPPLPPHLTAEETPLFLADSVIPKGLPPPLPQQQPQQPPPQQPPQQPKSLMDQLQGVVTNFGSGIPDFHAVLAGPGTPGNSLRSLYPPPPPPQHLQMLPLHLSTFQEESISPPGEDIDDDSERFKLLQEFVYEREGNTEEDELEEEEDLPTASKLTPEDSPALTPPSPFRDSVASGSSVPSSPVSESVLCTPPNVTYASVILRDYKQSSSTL
observed.property: EC50 (µM)
Field: numeric (µM). Do not append units.

Which EC50 value belongs to NC(C(=O)O)c1cc(O)ccc1Cl (racemic) [CHPG, 2-Chloro-5-hydroxyphenylglycine] ? 80

---

target: mGluR5b (Rattus norvegicus); construct: splice variant mGluR5b; assay: whole-cell patch clamp, calcium current inhibition in SCG neurons expressing the receptor
Sequence (P31424 21-1203): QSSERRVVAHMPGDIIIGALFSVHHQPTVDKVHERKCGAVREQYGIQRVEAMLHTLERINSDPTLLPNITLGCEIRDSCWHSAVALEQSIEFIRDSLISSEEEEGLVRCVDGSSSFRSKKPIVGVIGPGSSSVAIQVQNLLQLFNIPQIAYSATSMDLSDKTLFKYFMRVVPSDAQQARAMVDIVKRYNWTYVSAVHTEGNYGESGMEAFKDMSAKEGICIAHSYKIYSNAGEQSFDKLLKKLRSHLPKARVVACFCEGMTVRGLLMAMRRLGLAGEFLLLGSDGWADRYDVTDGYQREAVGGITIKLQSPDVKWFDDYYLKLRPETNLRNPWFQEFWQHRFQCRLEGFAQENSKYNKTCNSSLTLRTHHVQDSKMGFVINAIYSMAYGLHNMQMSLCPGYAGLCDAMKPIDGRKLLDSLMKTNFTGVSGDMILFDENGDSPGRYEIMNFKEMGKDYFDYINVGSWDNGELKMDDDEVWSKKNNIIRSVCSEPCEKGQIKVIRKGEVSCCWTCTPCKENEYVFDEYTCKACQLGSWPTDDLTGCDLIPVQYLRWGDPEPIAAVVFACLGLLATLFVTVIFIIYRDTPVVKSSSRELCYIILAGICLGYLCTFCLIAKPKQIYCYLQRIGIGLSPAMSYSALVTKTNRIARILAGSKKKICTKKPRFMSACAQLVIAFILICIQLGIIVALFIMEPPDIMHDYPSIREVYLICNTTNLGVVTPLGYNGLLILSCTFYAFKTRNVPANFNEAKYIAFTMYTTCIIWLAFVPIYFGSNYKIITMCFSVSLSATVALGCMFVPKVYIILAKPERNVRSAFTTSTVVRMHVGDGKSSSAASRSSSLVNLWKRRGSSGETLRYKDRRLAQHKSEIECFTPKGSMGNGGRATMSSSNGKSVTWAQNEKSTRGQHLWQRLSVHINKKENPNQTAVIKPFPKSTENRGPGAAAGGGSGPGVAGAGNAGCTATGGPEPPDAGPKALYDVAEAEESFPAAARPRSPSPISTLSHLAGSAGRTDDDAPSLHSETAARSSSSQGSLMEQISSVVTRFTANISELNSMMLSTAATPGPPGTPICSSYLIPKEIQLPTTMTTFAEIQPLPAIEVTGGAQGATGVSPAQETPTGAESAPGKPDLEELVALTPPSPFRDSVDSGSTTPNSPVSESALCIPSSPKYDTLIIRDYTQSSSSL
observed.property: pEC50
# reply with the number alone; pEC50 is -log10 of concentration in mol/L

# get_value(readout= pEC50, system= mGluR5b (Rattus norvegicus)) for NC(C(=O)O)c1cc(O)ccc1Cl (racemic) [CHPG, 2-Chloro-5-hydroxyphenylglycine] 4.24

All values here come from paper PMC3416681.
